Hello, the source for this data is the RNAGym collection of RNA variant scans (doi:10.1073/pnas.2313332121), in case you need it.

B1: TPR t1 (parent)
chain: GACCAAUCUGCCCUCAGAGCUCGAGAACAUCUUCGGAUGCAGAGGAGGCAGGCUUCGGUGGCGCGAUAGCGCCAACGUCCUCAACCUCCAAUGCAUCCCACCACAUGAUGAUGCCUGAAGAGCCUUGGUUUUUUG

Variants of: B1
Experiment: polymerase ribozyme fitness, log enrichment relative to wild type (log ratio); higher = more active; in vitro selection for triplet polymerase activity
Label scheme for polymerase ribozyme fitness (log ratio): lower than -2 is F, -2 and above is T.

| sequence.string | class.name |
| --- | --- |
| GACCUAUCUGCCCUCAGAGCUCGAGAACAUCUUCGGAUGCAGAGGAGGCAGGCUUCGGUGGCGCGAUAGCGCCAACGUCCUCAACCUCCAAUGCAUCCCACCACAUGAUGAUGACUGAAGAUCCUUGGUUUUUUG | T |
| GACCAAUCUGCCCUCAGAGCUCGAGAACAUCUUCGGUUGCAGAGGAGGCAGUCUUCGGUGGCGCGAUAGCGCCAACGUCCUCAACCUCCAAUGCAUCCCACCACAUGAUGAUGCCUGAAGAGCCUUGGUUUUUUG | T |
| GACCAAUCUGCCCUCAGAGCUCGAGAAUAUCUUCGGAUGCAGAGGAGGCAGGCUUUGGUGGCGCGAUAGCGCCAACGUCCUCAACCUCCAAUGCAUCCCAUCACAUGAUGAUGCCUGAAUAGCCUUGGUUUUUUG | F |
| GACCAAUCUGCCCUCAGAGCUCGAGAACAUCUUCGGAUGCAGAGGACGCAGGCUUCGGUGGCGCGAUAGCGCCAACGUCCUCAACCUCCAAUGCAUCCCACCACAUGAUGAUGCCUGAAGAGCCAUGGUUUUUUG | F |

Incoming: Does the reported polymerase ribozyme fitness (log ratio) for GACCAAUCUGCCCUCAGAGCUCGAGAACAUCUUCGGAUGCAGAGGAGGCAGGCUUCGGUGGCGCGAUAGCGCAAACGUCCUCAACCUCCAGUGCAUCCCACCACAUGAUGAUGCCUGAAGAGCCUUGGUUUUUUG fall at or above the -2 mark?
Outgoing: T

Incoming: Record GACCAAUCUGCCCUCAGAGCUCGAGAACAUCUUCGGAUGCAGAGGAGGCAGGCUUCGGUGGCGCGAUAGCGUCAACGUCCUCAACCUCCAAUGCAUCCCACCACAUGAUUAUGCCUGAAGAGCCUUGGUUUUUUG ; criterion: polymerase ribozyme fitness (log ratio) no lower than -2. Met?
Outgoing: T

Incoming: Is it the case that GACCAAUCUGACCUCAGAGCUCGAGAACAUCUUCGGAUGCAGAGGAGGCAGGCUUCGGUGGCGCGAUAGCGCCAACGUCCUCAACCUCCAAUGCAUCCCACCACAUGAUGCUGCCUGAAGAGCCUUGGUUUUUUG has polymerase ribozyme fitness (log ratio) reaching or exceeding -2?
Outgoing: T
